Biological target: T1, human BCMA on cells (human, UniProt Q02223 1-184)
T1 construct: whole, on cells; also called CHO-hBCMA cells; U266 cells
T1 sequence (looked up): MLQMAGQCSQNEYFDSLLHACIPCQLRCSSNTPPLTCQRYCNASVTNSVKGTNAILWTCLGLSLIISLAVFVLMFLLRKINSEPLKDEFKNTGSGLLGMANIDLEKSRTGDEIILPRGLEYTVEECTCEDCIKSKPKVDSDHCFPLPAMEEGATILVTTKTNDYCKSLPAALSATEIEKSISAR
Test: flow cytometry, U266 cells
pEC50: −log10 of the molar value.

BINDER	pEC50
1A11-Fc (antibody, human IgG1, V domains shown, also called anti-human BCMA VHH-Fc chimeric antibody 1A11-Fc) VH: QVQLVESGGGSVQAGGSLRLSCAASGVTFNSACMGWFRQAPGKEREGVARIETGYGGTVYADSVKGRFTISRDNAKNTVYLQMNSLKPEDTAMYYCAAKRSWCTPTWWHELDYNYWGQGTQVTVSS	8.90
1B10-Fc (antibody, human IgG1, V domains shown, Camel VHH fused to human IgG1 Fc; also called anti-human BCMA VHH-Fc chimeric antibody 1B10-Fc) VH: EVQLVESGGGSVQAGGSLRLSCTASGYTFRGWNKHWYRQAPGKERELVSSIFRDGKTAYTDSVKGRFTISQDSADATVYLQMNSLKPEDTAMYYCKYDLPGSGLPEFWGQGTLVTVSS	8.76
1A1-Fc (antibody, human IgG1, V domains shown, Camel VHH fused to human IgG1 Fc; also called anti-human BCMA VHH-Fc chimeric antibody 1A1-Fc) VH: QVQLVESGGGSVQAGGSLRLSCTASGYTFRGWNKHWYRQAPGKERELVSSIFRDGKTAYTDSVKGRFTISQDNADATVYLQMNSLKPEDTAMYYCKYDLPGSGLPAFWGQGTLVTVSS	8.56
1A10-Fc (antibody, human IgG1, V domains shown, also called anti-human BCMA VHH-Fc chimeric antibody 1A10-Fc) VH: QVQLVESGGGSVQAGGSLRLSCAASGYSSNVACMAWYRQAPGKEREWVATIVADFGTTNYAASVKGRFTISQDNAKNTVYLQMNSLKPEDSAMYYCAATQRGGIDWCDEINYWGQGTLVTVSS	8.33
